# Study system: Nonstructural protein 5A (Hepatitis C virus) (UniProt Q5L478)
# Sequence (Q5L478 as listed by the source): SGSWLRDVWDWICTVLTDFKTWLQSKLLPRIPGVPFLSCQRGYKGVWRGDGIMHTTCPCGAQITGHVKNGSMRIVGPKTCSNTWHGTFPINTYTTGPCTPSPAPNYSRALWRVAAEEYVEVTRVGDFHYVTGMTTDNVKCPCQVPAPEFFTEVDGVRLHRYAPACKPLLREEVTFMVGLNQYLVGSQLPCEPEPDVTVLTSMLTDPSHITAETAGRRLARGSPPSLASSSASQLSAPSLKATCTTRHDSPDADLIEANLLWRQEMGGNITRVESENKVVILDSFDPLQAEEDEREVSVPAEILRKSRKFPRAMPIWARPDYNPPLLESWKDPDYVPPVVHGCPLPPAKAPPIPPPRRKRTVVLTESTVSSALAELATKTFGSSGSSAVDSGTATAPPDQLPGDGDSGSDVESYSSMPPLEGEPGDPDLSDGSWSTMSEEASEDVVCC
# Assay explanation: Inhibition of HCV GT1a NS5A assessed as suppression of replicon RNA level by real-time PCR analysis
# Measurement setup: Hepatitis C virus subtype 1a
Mark Met only for EC90 values smaller than 10 pM; exact matches and larger values are Not met.

{"Compound": "COC(=O)N[C@H](C(=O)N1CCC[C@H]1c1ncc(-c2ccc3c(c2)OCn2c-3cc3cc(-c4cnc([C@@H]5CCCN5C(=O)[C@@H](NC(=O)OC)C(C)C)[nH]4)c(F)cc32)[nH]1)C(C)C", "Assigned label": "Met"}
{"Compound": "COC(=O)N[C@H](C(=O)N1CCC[C@H]1c1ncc(-c2ccc3c(c2)OCn2c-3cc3cc(-c4cnc([C@@H]5CCCN5C(=O)[C@@H](NC(=O)OC)C(C)C)[nH]4)cc(F)c32)[nH]1)C(C)C", "Assigned label": "Not met"}
{"Compound": "COC(=O)N[C@H](C(=O)N1CCC[C@H]1c1ncc(-c2ccc3c(c2)OC(c2ccc(OC)cc2)n2c-3cc3cc(-c4cnc([C@@H]5CCCN5C(=O)[C@@H](NC(=O)OC)C(C)C)[nH]4)ccc32)[nH]1)C(C)C (stereo partly drawn)", "Assigned label": "Not met"}

Task: Is EC90 of COC(=O)N[C@H](C(=O)N1CCC[C@H]1c1ncc(-c2ccc3c(c2)OCn2c-3c(-c3ccccc3)c3cc(-c4cnc([C@@H]5CCCN5C(=O)[C@@H](NC(=O)OC)C(C)C)[nH]4)ccc32)[nH]1)C(C)C strictly below 10 pM?
Result: Not met

Task: Is EC90 of COC(=O)N[C@H](C(=O)N1CCC[C@H]1c1ncc(-c2cc(F)c3c(c2)O[C@@H](c2ccccc2)n2c-3cc3cc(-c4cnc([C@@H]5CCCN5C(=O)[C@@H](NC(=O)OC)C(C)C)[nH]4)ccc32)[nH]1)C(C)C strictly below 10 pM?
Result: Met

Task: Is EC90 of COC(=O)N[C@H](C(=O)N1C[C@H](F)C[C@H]1c1ncc(-c2cc(F)c3c(c2)OC(c2cccc(OC(F)(F)F)c2)n2c-3cc3cc(-c4cnc([C@@H]5C[C@@H](F)CN5C(=O)[C@@H](NC(=O)OC)C(C)C)[nH]4)ccc32)[nH]1)C(C)C (stereo partly drawn) strictly below 10 pM?
Result: Met

Task: Is EC90 of COC(=O)N[C@H](C(=O)N1C[C@H](F)C[C@H]1c1ncc(-c2cc(F)c3c(c2)OC(c2ccccc2)n2c-3cc3cc(-c4cnc([C@@H]5C[C@@H](F)CN5C(=O)[C@@H](NC(=O)OC)C(C)C)[nH]4)ccc32)[nH]1)C(C)C (mixture of isomers) strictly below 10 pM?
Result: Met

Task: Is EC90 of COC(=O)N[C@H](C(=O)N1CCC[C@H]1c1ncc(-c2cc3c(c(C4CC4)c2)-c2cc4cc(-c5cnc([C@@H]6CCCN6C(=O)[C@@H](NC(=O)OC)C(C)C)[nH]5)ccc4n2CO3)[nH]1)C(C)C strictly below 10 pM?
Result: Not met

Task: Is EC90 of COC(=O)N[C@H](C(=O)N1CCC[C@H]1c1ncc(-c2ccc3c(c2)OC(c2ccccc2)n2c-3c(F)c3cc(-c4cnc([C@@H]5C[C@@H](F)CN5C(=O)[C@@H](NC(=O)OC)C(C)C)[nH]4)ccc32)[nH]1)C(C)C (mixture of isomers) strictly below 10 pM?
Result: Met
